System name: Cyclin-dependent kinase 19 (Homo sapiens)
Sequence (Q9BWU1 whole entry): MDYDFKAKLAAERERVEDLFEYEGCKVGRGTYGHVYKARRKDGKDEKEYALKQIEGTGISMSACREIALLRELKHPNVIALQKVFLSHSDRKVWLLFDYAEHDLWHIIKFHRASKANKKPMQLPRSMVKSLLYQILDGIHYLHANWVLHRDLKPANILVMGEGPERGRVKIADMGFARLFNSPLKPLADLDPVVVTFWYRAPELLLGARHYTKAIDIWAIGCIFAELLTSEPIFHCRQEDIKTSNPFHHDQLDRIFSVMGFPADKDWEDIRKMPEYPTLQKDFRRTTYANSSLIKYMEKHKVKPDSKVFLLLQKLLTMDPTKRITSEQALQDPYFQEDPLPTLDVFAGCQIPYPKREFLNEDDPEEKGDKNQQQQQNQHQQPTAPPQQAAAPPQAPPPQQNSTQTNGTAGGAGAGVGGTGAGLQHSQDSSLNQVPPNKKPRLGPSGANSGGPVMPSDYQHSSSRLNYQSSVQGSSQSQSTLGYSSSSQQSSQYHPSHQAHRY
Protocol notes: Displacement of polymer supported probe 25 binding to CDK11 in human THP-1 cell lysates preincubated for 45 mins under shaking condition followed by probe addition and measured after 30 mins by mass spectrometry based chemoproteomic analysis
Setup conditions: read-out: Kd(app)

| Molecule | Kd |
| --- | --- |
| CC(C)c1ccn2ncnc(N[C@H]3CC[C@@H](N4CCN(C(=O)CCC(=O)N5CCC(CCN6CCN(c7ccc8c(c7)C(=O)N(C7CCC(=O)NC7=O)C8=O)CC6)CC5)CC4)CC3)c12 (stereo partly specified) | > 30 µM |

* * *

System name: Cyclin-dependent kinase 8 (Homo sapiens)
Sequence (P49336 whole entry): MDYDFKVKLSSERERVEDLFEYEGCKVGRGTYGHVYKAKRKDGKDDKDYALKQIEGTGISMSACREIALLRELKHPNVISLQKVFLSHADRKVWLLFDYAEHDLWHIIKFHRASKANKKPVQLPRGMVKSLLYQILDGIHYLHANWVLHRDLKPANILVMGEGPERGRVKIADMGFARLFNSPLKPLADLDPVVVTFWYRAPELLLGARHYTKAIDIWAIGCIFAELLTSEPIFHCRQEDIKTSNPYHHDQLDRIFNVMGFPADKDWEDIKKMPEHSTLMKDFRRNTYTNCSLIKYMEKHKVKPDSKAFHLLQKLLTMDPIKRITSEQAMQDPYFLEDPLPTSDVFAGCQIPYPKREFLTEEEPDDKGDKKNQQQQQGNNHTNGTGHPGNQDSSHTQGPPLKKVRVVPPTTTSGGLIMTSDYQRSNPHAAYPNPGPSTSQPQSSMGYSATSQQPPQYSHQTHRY
Protocol notes: Displacement of polymer supported probe 25 binding to CDK8 in human THP-1 cell lysates preincubated for 45 mins under shaking condition followed by probe addition and measured after 30 mins by mass spectrometry based chemoproteomic analysis
Setup conditions: read-out: Kd(app)
pKd: −log10 of the molar value.
Measure: pKd

| Molecule | Reported |
| --- | --- |
| CC(C)c1ccn2ncnc(N[C@H]3CC[C@@H](N4CCN(C(=O)CCC(=O)N5CCC(CCN6CCN(c7ccc8c(c7)C(=O)N(C7CCC(=O)NC7=O)C8=O)CC6)CC5)CC4)CC3)c12 (stereo partly specified) | 5.85 |

* * *

System name: Protein cereblon/Interleukin-1 receptor-associated kinase 3 (Homo sapiens, UniProt Q9Y616+Q96SW2)
Sequence (Q96SW2 whole entry, looked up, one chain of several): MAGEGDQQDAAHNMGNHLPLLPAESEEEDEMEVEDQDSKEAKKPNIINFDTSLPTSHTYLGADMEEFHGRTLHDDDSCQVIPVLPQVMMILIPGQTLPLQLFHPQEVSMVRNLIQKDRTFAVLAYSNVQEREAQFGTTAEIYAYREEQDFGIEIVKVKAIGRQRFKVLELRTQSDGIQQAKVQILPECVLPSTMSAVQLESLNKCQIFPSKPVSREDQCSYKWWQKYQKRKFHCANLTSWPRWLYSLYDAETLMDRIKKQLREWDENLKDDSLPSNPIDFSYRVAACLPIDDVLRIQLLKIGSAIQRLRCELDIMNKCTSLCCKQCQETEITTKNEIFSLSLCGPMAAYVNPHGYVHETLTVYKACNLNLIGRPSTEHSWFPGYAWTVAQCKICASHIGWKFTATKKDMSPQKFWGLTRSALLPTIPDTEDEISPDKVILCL
Protocol notes: Protac activity at CRBN/IRAK3 in LPS-induced human THP1 cells assessed as induction of IRAK3 degradation at 10 uM by Western blot analysis relative to control
Format: cell-based
Setup conditions: THP-1
Reported Activity values for the following compounds.

| Compound | Activity, % |
| --- | --- |
| CC(C)c1ccn2ncnc(N[C@H]3CC[C@@H](N4CCN(C(=O)CCOCCOCCOCCOCCNc5cccc6c5C(=O)N(C5CCC(=O)NC5=O)C6=O)CC4)CC3)c12 (stereo not given in full) | 27 |
| CC(C)c1ccn2ncnc(N[C@H]3CC[C@@H](N4CCN(C(=O)CCOCCOCCOCCNc5cccc6c5C(=O)N(C5CCC(=O)NC5=O)C6=O)CC4)CC3)c12 (stereo not given in full) | 21 |
| CC(C)c1ccn2ncnc(N[C@H]3CC[C@@H](N4CCN(C(=O)CCC(=O)NCCOCCOCCOCCOCCNc5cccc6c5C(=O)N(C5CCC(=O)NC5=O)C6=O)CC4)CC3)c12 (stereo not given in full) | 55 |
| CC(C)c1ccn2ncnc(N[C@H]3CC[C@@H](N4CCN(C(=O)CCC(=O)NCCOCCOCCNc5cccc6c5C(=O)N(C5CCC(=O)NC5=O)C6=O)CC4)CC3)c12 (stereo not given in full) | 13 |
| CC(C)c1ccn2ncnc(N[C@H]3CC[C@@H](N4CCN(C(=O)CCC(=O)NCCCCNc5cccc6c5C(=O)N(C5CCC(=O)NC5=O)C6=O)CC4)CC3)c12 (stereo not given in full) | 0 |

* * *

Protocol notes: Intrinsic apparent permeability across apical to basolateral side in human Caco-2 cells

| Smiles string | Value unit | Papp A→B |
| --- | --- | --- |
| CC(=O)N1CCN([C@H]2CC[C@@H](Nc3ncnc4[nH]cc(C(C)C)c34)CC2)CC1 | ×10⁻⁶ cm/s | 12 |

* * *

System name: Interleukin-1 receptor-associated kinase 3 (Homo sapiens)
Sequence (Q9Y616 whole entry): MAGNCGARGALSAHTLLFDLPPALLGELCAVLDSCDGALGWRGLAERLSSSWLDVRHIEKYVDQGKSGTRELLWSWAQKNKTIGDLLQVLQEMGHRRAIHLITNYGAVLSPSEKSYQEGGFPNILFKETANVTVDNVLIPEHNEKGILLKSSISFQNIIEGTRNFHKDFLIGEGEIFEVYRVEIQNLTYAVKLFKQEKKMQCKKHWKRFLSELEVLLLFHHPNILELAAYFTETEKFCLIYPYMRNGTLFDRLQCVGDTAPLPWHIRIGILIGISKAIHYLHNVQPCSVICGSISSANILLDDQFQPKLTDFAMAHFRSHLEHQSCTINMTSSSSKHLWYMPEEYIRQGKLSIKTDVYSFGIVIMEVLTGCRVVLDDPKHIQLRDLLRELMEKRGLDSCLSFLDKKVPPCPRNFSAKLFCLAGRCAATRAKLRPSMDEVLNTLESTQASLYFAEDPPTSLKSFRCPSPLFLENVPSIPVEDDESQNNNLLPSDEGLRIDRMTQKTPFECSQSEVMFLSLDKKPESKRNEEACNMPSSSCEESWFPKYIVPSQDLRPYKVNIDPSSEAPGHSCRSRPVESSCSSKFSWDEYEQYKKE
Protocol notes: Inhibition of kinase tracer 236 binding to recombinant human full-length GST-tagged IRAK3 expressed in insect cells by Lanthascreen Eu kinase binding assay
pIC50: −log10 of the molar value.
Reported pIC50 values for the following compounds.
Measure: pIC50

| Compound | Measure | Reported |
| --- | --- | --- |
| CC(C)c1ccn2ncnc(N[C@H]3CC[C@@H](N4CCN(C(=O)CCOCCOCCOCCOCCNc5cccc6c5C(=O)N(C5CCC(=O)NC5=O)C6=O)CC4)CC3)c12 (stereo partly specified) | pIC50 | 7.30 |
| CC(C)c1ccn2ncnc(N[C@H]3CC[C@@H](N4CCN(C(=O)CCC(=O)NCCOCCOCCOCCNc5cccc6c5C(=O)N(C5CCC(=O)NC5=O)C6=O)CC4)CC3)c12 (stereo partly specified) | pIC50 | 7.68 |
| Cc1ncsc1-c1ccc(CNC(=O)[C@@H]2C[C@@H](O)CN2C(=O)[C@@H](NC(=O)COCCOCCNC(=O)CCC(=O)N2CCN([C@H]3CC[C@@H](Nc4ncnn5ccc(C(C)C)c45)CC3)CC2)C(C)(C)C)cc1 | pIC50 | 7.62 |
| Cc1ncsc1-c1ccc(CNC(=O)[C@@H]2C[C@@H](O)CN2C(=O)[C@@H](NC(=O)CCCNC(=O)CCC(=O)N2CCN([C@H]3CC[C@@H](Nc4ncnn5ccc(C(C)C)c45)CC3)CC2)C(C)(C)C)cc1 | pIC50 | 7.82 |
| CC(C)c1ccn2ncnc(N[C@H]3CC[C@@H](N4CCN(C(=O)CCC(=O)NCCCCNc5cccc6c5C(=O)N(C5CCC(=O)NC5=O)C6=O)CC4)CC3)c12 (stereo partly specified) | pIC50 | 7.89 |
| CC(=O)N1CCN([C@H]2CC[C@@H](Nc3ncnn4ccc(C(C)C)c34)CC2)CC1 | pIC50 | 8.22 |
| Cc1ncsc1-c1ccc(CNC(=O)[C@@H]2C[C@@H](O)CN2C(=O)[C@@H](NC(=O)COCCOCCOCCNC(=O)CCC(=O)N2CCN([C@H]3CC[C@@H](Nc4ncnn5ccc(C(C)C)c45)CC3)CC2)C(C)(C)C)cc1 | pIC50 | 7.60 |
| CC(C)c1ccn2ncnc(N[C@H]3CC[C@@H](N4CCN(C(=O)CCC(=O)N5CCC(CCN6CCN(c7ccc8c(c7)C(=O)N(C7CCC(=O)NC7=O)C8=O)CC6)CC5)CC4)CC3)c12 (stereo partly specified) | pIC50 | 8.30 |
| CC(C)c1ccn2ncnc(N[C@H]3CC[C@@H](N4CCN(C(=O)CCC(=O)N5CCC(CCN6CCN(c7ccc8c(c7)C(=O)N(C7CCC(=O)N(C)C7=O)C8=O)CC6)CC5)CC4)CC3)c12 (stereo partly specified) | pIC50 | 8.40 |
| Cc1ncsc1-c1ccc(CNC(=O)[C@@H]2C[C@@H](O)CN2C(=O)[C@@H](NC(=O)CCCCCCNC(=O)CCC(=O)N2CCN([C@H]3CC[C@@H](Nc4ncnn5ccc(C(C)C)c45)CC3)CC2)C(C)(C)C)cc1 | pIC50 | 8.22 |
| CC(C)c1ccn2ncnc(N[C@H]3CC[C@@H](N4CCN(C(=O)CCC(=O)NCCOCCOCCNc5cccc6c5C(=O)N(C5CCC(=O)NC5=O)C6=O)CC4)CC3)c12 (stereo partly specified) | pIC50 | 8.00 |

* * *

System name: Interleukin-1 receptor-associated kinase 3 (Homo sapiens, UniProt Q9Y616)
Protocol notes: Inhibition of kinase tracer 236 binding to recombinant human full-length GST-tagged IRAK3 expressed in insect cells by Lanthascreen Eu kinase binding assay
pIC50: −log10 of the molar value.
Reported pIC50 values for the following compounds.

| Compound | pIC50 |
| --- | --- |
| Cc1ncsc1-c1ccc(CNC(=O)[C@@H]2C[C@@H](O)CN2C(=O)[C@@H](NC(=O)COCCOCCOCCOCC(=O)N2CCN([C@H]3CC[C@@H](Nc4ncnn5ccc(C(C)C)c45)CC3)CC2)C(C)(C)C)cc1 | 7.68 |
| CC(=O)N1CCN([C@H]2CC[C@H](Nc3ncnn4ccc(C(C)C)c34)CC2)CC1 | 7.51 |
| CC(C)c1ccn2ncnc(N[C@H]3CC[C@@H](N4CCN(C(=O)CCOCCOCCOCCNc5cccc6c5C(=O)N(C5CCC(=O)NC5=O)C6=O)CC4)CC3)c12 (stereo partly specified) | 7.47 |
| CC(C)c1ccn2ncnc(N[C@H]3CC[C@@H](N4CCN(C(=O)CCC(=O)N5CCC(CN6CCN(c7ccc8c(c7)C(=O)N(C7CCC(=O)NC7=O)C8=O)CC6)CC5)CC4)CC3)c12 (stereo partly specified) | 8.22 |
| CC(C)c1ccn2ncnc(N[C@H]3CC[C@@H](N4CCN(C(=O)CCOCCOCCOCCOCCOCCNc5cccc6c5C(=O)N(C5CCC(=O)NC5=O)C6=O)CC4)CC3)c12 (stereo partly specified) | 7.48 |
| Cc1ncsc1-c1ccc(CNC(=O)[C@@H]2C[C@@H](O)CN2C(=O)[C@@H](NC(=O)COCCOCCOCCOCCOCC(=O)N2CCN([C@H]3CC[C@@H](Nc4ncnn5ccc(C(C)C)c45)CC3)CC2)C(C)(C)C)cc1 | 7.29 |
| Cc1ncsc1-c1ccc(CNC(=O)[C@@H]2C[C@@H](O)CN2C(=O)[C@@H](NC(=O)COCCOCCOCCOCCOCCOCC(=O)N2CCN([C@H]3CC[C@@H](Nc4ncnn5ccc(C(C)C)c45)CC3)CC2)C(C)(C)C)cc1 | 7.48 |
| CC(C)c1ccn2ncnc(N[C@H]3CC[C@@H](N4CCN(C(=O)CCC(=O)NCCOCCOCCOCCOCCNc5cccc6c5C(=O)N(C5CCC(=O)NC5=O)C6=O)CC4)CC3)c12 (stereo partly specified) | 7.66 |
| CC(C)c1ccn2ncnc(N[C@H]3CC[C@@H](N4CCN(C(=O)CCC(=O)NCCCCCCNc5cccc6c5C(=O)N(C5CCC(=O)NC5=O)C6=O)CC4)CC3)c12 (stereo partly specified) | 7.68 |
| Cc1ncsc1-c1ccc(CNC(=O)[C@@H]2C[C@@H](O)CN2C(=O)[C@@H](NC(=O)COCCOCCOCCOCCNC(=O)CCC(=O)N2CCN([C@H]3CC[C@@H](Nc4ncnn5ccc(C(C)C)c45)CC3)CC2)C(C)(C)C)cc1 | 7.72 |
| CC(=O)N1CCN([C@H]2CC[C@@H](Nc3ncnc4[nH]cc(C(C)C)c34)CC2)CC1 | 8.40 |

src = ChEMBL document CHEMBL4725370
